# collection of Ki values tested on Substance-P receptor (Homo sapiens, UniProt P25103)
# Sequence (P25103 whole entry): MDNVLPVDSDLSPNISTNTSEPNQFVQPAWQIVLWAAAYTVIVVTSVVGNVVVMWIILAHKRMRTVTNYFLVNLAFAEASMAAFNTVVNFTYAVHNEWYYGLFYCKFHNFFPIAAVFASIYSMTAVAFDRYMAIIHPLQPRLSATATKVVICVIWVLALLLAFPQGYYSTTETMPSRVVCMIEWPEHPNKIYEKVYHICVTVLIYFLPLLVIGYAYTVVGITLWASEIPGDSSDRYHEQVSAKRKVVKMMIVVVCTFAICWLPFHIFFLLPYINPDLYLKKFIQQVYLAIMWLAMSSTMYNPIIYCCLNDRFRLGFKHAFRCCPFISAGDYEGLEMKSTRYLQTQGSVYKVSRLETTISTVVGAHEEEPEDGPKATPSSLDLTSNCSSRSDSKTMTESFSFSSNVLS
parameter: Ki (nM)

// solved cases for Ki follow
[
  {
    "compound": "CO/N=C(\\COCc1cc(C(F)(F)F)cc(C(F)(F)F)c1)C(CCN1CCN(CC(=O)N2CCCCC2)CC1)c1ccc(Cl)c(Cl)c1 (centres undefined)",
    "Ki (nM)": 82
  },
  {
    "compound": "CO/N=C(\\COCc1cc(C(F)(F)F)cc(C(F)(F)F)c1)C(CCN1CCN(C2CCCCC2)CC1)c1ccc(Cl)c(Cl)c1 (centres undefined)",
    "Ki (nM)": 53
  },
  {
    "compound": "CO/N=C(\\COCc1cc(C(F)(F)F)cc(C(F)(F)F)c1)C(CCN1CCN(CC(=O)NCC2CCCO2)CC1)c1ccc(Cl)c(Cl)c1 (centres undefined)",
    "Ki (nM)": 20
  },
  {
    "compound": "CO/N=C(\\COCc1cc(C(F)(F)F)cc(C(F)(F)F)c1)C(CCN1CCN(CC(=O)NC2CC2)CC1)c1ccc(Cl)c(Cl)c1 (centres undefined)",
    "Ki (nM)": 62
  }
]

P = CO/N=C(\COCc1cc(C(F)(F)F)cc(C(F)(F)F)c1)C(CCN1CCN(CC(=O)N(C(C)C)C(C)C)CC1)c1ccc(Cl)c(Cl)c1 (centres undefined)
Q = CO/N=C(\COCc1cc(C(F)(F)F)cc(C(F)(F)F)c1)C(CCN1CCN(CC(=O)N2CC(O)C2)CC1)c1ccc(Cl)c(Cl)c1 (centres undefined)
R = CO/N=C(\COCc1cc(C(F)(F)F)cc(C(F)(F)F)c1)C(CCN1CCN(CC(=O)N2CCCC(O)C2)CC1)c1ccc(Cl)c(Cl)c1 (centres undefined)
S = CO/N=C(\COCc1cc(C(F)(F)F)cc(C(F)(F)F)c1)C(CCN1CCN(CC(=O)N2CCCCC2CO)CC1)c1ccc(Cl)c(Cl)c1 (centres undefined)
T = CO/N=C(\COCc1cc(C(F)(F)F)cc(C(F)(F)F)c1)C(CCN1CCN(c2ccccc2)CC1)c1ccc(Cl)c(Cl)c1 (centres undefined)
# ascending order, key=Ki A ranking is expressed here by listing the labels in the requested order.
R, Q, S, P, T
(R: 13 nM, Q: 22 nM, S: 47 nM, P: 82 nM, T: 181 nM)

Origin of values: ChEMBL document CHEMBL1132780
